Assay: log P by HPLC
Format: physicochemical
Details: HPLC, gradient method, acetonitrile/0.1% aqueous phosphoric acid; EEC directive 79/831 Annex V. A8
ASSAY_ENDPOINT: logP

COMPOUND: Fc1ccc(-c2c(Cl)nc3nc(C4CC4)nn3c2NC2CCCC(C(F)(F)F)C2)c(F)c1 (stereo not shown)
OBS_VALUE: 3.98
--
COMPOUND: Cc1nc2nc(Cl)c(-c3c(F)cccc3F)c(NOC(C)(C)C)n2n1
OBS_VALUE: 2.68
--
COMPOUND: Cc1nc2nc(Cl)c(-c3c(F)cccc3F)c(N(CCN)C(C)C)n2n1
OBS_VALUE: 1.28

Now, please, on to the next compound.
Qu. Item under review: CC1CCCCN1c1c(-c2ccc(F)cc2F)c(Cl)nc2nc(C3CC3)nn12 (stereo not shown) . Reported logP?
Ans. 4.3

###

Assay: log P by HPLC
Format: physicochemical
Settings: EEC directive 79/831 Annex V. A8 by HPLC (gradient method, acetonitrile/0.1% aqueous phosphoric acid)
ASSAY_ENDPOINT: logP
// return a plain number; no unit text

MOLECULE: Cc1nc2nc(Cl)c(-c3ccccc3F)c(N3CCCCC3)n2n1
OBS_VALUE: 3.19
--
MOLECULE: Fc1cc(F)c(-c2c(Cl)nc3nc(C4CC4)nn3c2N2CCCCN2)c(F)c1
OBS_VALUE: 3.42
--
MOLECULE: Cc1nc2nc(Cl)c(-c3c(F)cccc3F)c(N(C)CC(C)C)n2n1
OBS_VALUE: 3.37
--
MOLECULE: CCOC(=O)CN(CC)c1c(-c2c(F)cccc2F)c(Cl)nc2nc(C)nn12
OBS_VALUE: 2.85

Qu. Item under review: Cc1nc2nc(Cl)c(-c3ccc(F)cc3F)c(NC3CCCCC3C(F)(F)F)n2n1 (centres unmarked) . Reported logP?
Ans. 3.56

###

Assay: log P by HPLC
Assay type: physicochemical
Settings: HPLC, gradient method, acetonitrile/0.1% aqueous phosphoric acid; EEC directive 79/831 Annex V. A8
This section presents compounds with their documented logP values.
// return a plain number; no unit text

// known answers, use as guide
COMPOUND: Cc1nc2nc(Cl)c(-c3c(F)cccc3F)c(NCC3CC3)n2n1
logP: 2.62
//
COMPOUND: Cc1nc2nc(Cl)c(-c3c(F)cccc3F)c(N3OCCC3C)n2n1 (centres unmarked)
logP: 2.61

Qu. Item under review: Cc1nc2nc(Cl)c(-c3c(F)cccc3F)c(NC(C)C(C)(C)C)n2n1 (centres unmarked) . Reported logP?
Ans. 3.56

Qu. Item under review: Fc1cccc(Cl)c1-c1c(Cl)nc2nc(C3CC3)nn2c1N1CCC(F)CC1 . Reported logP?
Ans. 3.63

Qu. Item under review: CCC(C)Nc1c(-c2ccccc2Cl)c(Cl)nc2nc(C)nn12 (centres unmarked) . Reported logP?
Ans. 3.09

Qu. Item under review: CC1CN(c2c(-c3c(F)cc(F)cc3F)c(Cl)nc3nc(C(F)(F)F)nn23)CC(C)O1 (centres unmarked) . Reported logP?
Ans. 4.18

Qu. Item under review: C=C(C)CN(C)c1c(-c2ccc(F)cc2Cl)c(Cl)nc2nc(C3CC3)nn12 . Reported logP?
Ans. 4.41

Qu. Item under review: Cc1nc2nc(Cl)c(-c3ccc(F)cc3Cl)c(N3CCCCO3)n2n1 . Reported logP?
Ans. 3.23

Qu. Item under review: CN(CCC#N)c1c(-c2ccc(F)cc2F)c(Cl)nc2nc(C(F)(F)F)nn12 . Reported logP?
Ans. 3.19

Qu. Item under review: Fc1cc(F)c(-c2c(Cl)nc3nc(C(F)(F)F)nn3c2NCC2CC2)c(F)c1 . Reported logP?
Ans. 3.89

Qu. Item under review: CCc1nc2nc(Cl)c(-c3c(F)cc(F)cc3F)c(N3CCCCC3)n2n1 . Reported logP?
Ans. 3.94

Qu. Item under review: Cc1nc2nc(Cl)c(-c3ccc(F)cc3F)c(N(C)CC(C)C)n2n1 . Reported logP?
Ans. 3.49
